Tested on: ACHN
PROTOCOL_NOTES: NCI tumour cell line growth inhibition, 48 h
Activity calls are given as the source filed them. No stated cut-off is given here; in the data, active = GI50 up to about 1.1 µM and inactive = higher.
Let's look at some compounds and their measured GI50.
QUANTITY_NAME: GI50

• OCc1ccccc1C1CSCSC1 = > 100 µM (inactive)
• O=C(NCCS(=O)(=O)N1C(=O)C2CCCN2C(=O)[C@@H]1Cc1ccccc1)OCc1ccccc1 (stereo partly drawn) = 35 µM (inactive)
• COC(=O)c1ccc(/C=C(\c2ccc([N+](=O)[O-])o2)S(=O)(=O)c2ccc(NC(C)=O)cc2)o1 = 3.09 µM (inactive)

----------
Measured GI50 values are reported for all entries that follow.
System: M14
PROTOCOL_NOTES: NCI tumour cell line growth inhibition, 48 h
The source made the active and inactive calls. No stated cut-off is given here; in the data, active = GI50 up to about 1.1 µM and inactive = higher.
QUANTITY_NAME: GI50

- CC(C)=CCc1ccc2[nH]c3c(c2c1)C(=O)C(=O)C(C)=C3C(O)C(C)O (stereo not drawn): 1.91 µM (inactive)
- COc1ccc(/C=N/n2cnc3[nH]c(C)c(Cc4ccccc4)c3c2=N)cc1: > 100 µM (inactive)
- NC(C(=O)O)C(O)c1c[nH]cn1 (stereo not drawn): > 100 µM (inactive)

Data credit: ChEMBL document CHEMBL1201862
